Target: T1, monkey CD22 protein (ACROBiosystems, catalog number SI2-R52Ha) (monkey, UniProt F6W485 20-688)
T1 construct: commercial protein; also called monkey CD22-ECD; monkey CD22-ECD-His
T1 sequence: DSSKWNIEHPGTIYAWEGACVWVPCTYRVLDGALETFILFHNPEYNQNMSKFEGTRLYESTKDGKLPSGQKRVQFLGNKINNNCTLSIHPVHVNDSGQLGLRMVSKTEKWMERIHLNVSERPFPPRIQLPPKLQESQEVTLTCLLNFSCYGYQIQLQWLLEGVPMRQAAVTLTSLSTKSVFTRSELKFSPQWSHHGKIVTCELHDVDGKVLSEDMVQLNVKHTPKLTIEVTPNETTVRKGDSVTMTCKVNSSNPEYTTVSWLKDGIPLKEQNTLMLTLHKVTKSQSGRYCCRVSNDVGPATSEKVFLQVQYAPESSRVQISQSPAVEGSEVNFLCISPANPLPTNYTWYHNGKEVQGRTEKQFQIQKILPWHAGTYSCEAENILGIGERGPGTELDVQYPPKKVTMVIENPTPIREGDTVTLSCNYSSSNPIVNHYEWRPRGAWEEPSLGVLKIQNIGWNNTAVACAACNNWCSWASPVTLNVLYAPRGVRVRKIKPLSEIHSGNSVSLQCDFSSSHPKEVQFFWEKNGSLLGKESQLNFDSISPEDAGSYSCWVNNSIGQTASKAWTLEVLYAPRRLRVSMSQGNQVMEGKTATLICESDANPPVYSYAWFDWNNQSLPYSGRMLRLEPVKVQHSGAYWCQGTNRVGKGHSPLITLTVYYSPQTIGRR
Test: ELISA, coated monkey CD22 protein, antibody 0.00001 nM
MEASURED_PARAMETER: OD450 (OD450)

{"BINDER": "F2.104.10 (antibody, human IgG1, lambda, V domains shown, human-murine chimeric IgG1 lambda) VH: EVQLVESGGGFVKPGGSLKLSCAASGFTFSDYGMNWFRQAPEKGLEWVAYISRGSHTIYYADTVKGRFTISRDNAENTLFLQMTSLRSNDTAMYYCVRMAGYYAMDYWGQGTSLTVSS VL: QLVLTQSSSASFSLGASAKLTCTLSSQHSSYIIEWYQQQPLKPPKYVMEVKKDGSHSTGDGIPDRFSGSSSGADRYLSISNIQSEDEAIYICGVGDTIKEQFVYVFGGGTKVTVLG", "MEASURED_PARAMETER": "OD450", "ENDPOINT_RESULT": 0.05}
{"BINDER": "F1.172.13 (antibody, human IgG1, kappa, V domains shown, human-murine chimeric IgG1 kappa) VH: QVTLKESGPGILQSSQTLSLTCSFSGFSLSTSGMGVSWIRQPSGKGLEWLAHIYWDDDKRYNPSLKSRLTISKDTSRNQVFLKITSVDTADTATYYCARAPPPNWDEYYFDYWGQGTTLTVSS VL: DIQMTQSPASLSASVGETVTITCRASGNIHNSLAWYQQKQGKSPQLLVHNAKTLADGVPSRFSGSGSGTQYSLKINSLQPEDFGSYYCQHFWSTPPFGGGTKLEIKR", "MEASURED_PARAMETER": "OD450", "ENDPOINT_RESULT": 0.09}
{"BINDER": "F1.250.16 (antibody, human IgG1, kappa, V domains shown, human-murine chimeric IgG1 kappa; VL name legible) VH: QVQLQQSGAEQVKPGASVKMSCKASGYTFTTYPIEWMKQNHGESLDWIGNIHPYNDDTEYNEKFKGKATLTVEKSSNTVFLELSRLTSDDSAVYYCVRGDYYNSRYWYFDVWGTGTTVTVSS VL: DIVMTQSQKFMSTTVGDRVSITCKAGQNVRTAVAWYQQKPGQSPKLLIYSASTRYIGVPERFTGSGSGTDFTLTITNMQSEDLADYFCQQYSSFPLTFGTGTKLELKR", "MEASURED_PARAMETER": "OD450", "ENDPOINT_RESULT": 0.1}
{"BINDER": "F1.17.1 (antibody, human IgG1, kappa, V domains shown, human-murine chimeric IgG1 kappa) VH: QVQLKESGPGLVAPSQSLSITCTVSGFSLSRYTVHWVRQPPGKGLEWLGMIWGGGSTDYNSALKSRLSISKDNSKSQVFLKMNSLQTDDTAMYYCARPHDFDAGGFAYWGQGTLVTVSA VL: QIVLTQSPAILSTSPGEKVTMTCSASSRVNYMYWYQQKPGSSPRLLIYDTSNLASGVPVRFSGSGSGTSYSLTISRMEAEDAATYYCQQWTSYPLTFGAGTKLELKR", "MEASURED_PARAMETER": "OD450", "ENDPOINT_RESULT": 0.07}
{"BINDER": "F1.62.10 (antibody, human IgG1, kappa, V domains shown, human-murine chimeric IgG1 kappa) VH: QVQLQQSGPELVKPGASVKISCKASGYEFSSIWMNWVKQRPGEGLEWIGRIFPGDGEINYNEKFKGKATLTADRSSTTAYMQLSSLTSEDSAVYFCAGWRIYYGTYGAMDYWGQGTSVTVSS VL: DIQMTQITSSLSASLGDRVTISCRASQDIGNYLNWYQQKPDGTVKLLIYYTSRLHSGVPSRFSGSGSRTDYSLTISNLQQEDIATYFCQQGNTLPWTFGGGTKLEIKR", "MEASURED_PARAMETER": "OD450", "ENDPOINT_RESULT": 0.06}
